Origin of the recorded values: the RNAGym collection of RNA variant scans (doi:10.1002/anie.201605470)

B1: Osa-1-4 twister ribozyme (parent)
chain: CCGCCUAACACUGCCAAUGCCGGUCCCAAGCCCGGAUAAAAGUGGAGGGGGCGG

Variants of: B1
procedure summary: self-cleavage, relative activity (ratio to wild type); higher = more cleavage; co-transcriptional
parameter measured: self-cleavage

1. A38U U24A = 0.14
2. A16G G49C = 0.08
3. A16G A7C = 0.08
4. A8G U37C = 0.68
5. A38U C52U = 1.01
6. C14U G54A = 0.17
7. A7U G22C = 0.07
8. G13U G44A = 0.03
9. G35C G45C = 0.07
10. C33A G45A = 0.06
11. G34A G48C = 0.08
12. A28U A8C = 0.06
13. C25A C32G = 0.05
